- Tested on: OVCAR-3 ovarian
- experiment.summary: NCI-60 one-dose screen, 48 h
- recorded.conditions: 10 µM unless noted
The panel holds about 83,000 compounds, 20% with a hit somewhere; the sample as a whole holds those more often. Active and inactive are the calls of the source. Rule for the calls: active = growth percent below 10; inactive = the rest.
Answer with one of the outcomes label 1 for active, label 0 for inactive

What was the test verdict on `O=C(Cc1ccc(NC(=O)c2cccc(Cl)c2)cc1)NCc1ccccc1` ?
label 0

What was the test verdict on `O=C(/C=C(O)/C=C/c1cccc2[nH]ccc12)/C=C/c1cccc2[nH]ccc12` ?
label 0

What was the test verdict on Nc1nc(N)c2c(n1)NC(c1cccc(Nc3ccnc4cc(C(F)(F)F)ccc34)c1)CC(c1ccccc1)=N2 (centres undefined) ?
label 0

What was the test verdict on CCN1C(=O)N(CC)C2Nn3c(s/c(=C\c4ccccc4Br)c3=O)=NC21 (centres undefined) ?
label 1

What was the test verdict on `N#C/C(=C\c1cn(Cc2ccccc2)c2ccccc12)C(=O)Nc1ncc(Cc2ccccc2Cl)s1` ?
label 1

What was the test verdict on `C=C(C)[C@@H]1CC[C@]2(COC(C)=O)CC[C@]3(C)[C@H](CC[C@@H]4[C@@]5(C)CCCN(C(C)=O)C(C)(C)[C@@H]5CC[C@]43C)[C@@H]12` ?
label 0

What was the test verdict on `COc1ccccc1C(=O)Nc1cccc(NC(=O)c2ccoc2C)c1` ?
label 0

What was the test verdict on `NC(=O)c1c(NC(=O)c2cccc(C(F)(F)F)c2)sc2c1CCC(=O)C2` ?
label 1

What was the test verdict on `CCS/C(Nc1ccccc1)=C(\C#N)C(=O)Nc1ccc(OC)cc1` ?
label 1

What was the test verdict on `O=[N+]([O-])c1cc(NS(=O)(=O)c2ccccc2)ccc1NS(=O)(=O)c1ccccc1` ?
label 0

What was the test verdict on `CN(CCCNC(=O)CCOCCOCCOCCNC(=O)Cc1ccc2ccc3cccc4ccc1c2c34)CCCNc1cc(-c2ccc3ccccc3c2)nc2ccccc12` ?
label 1

What was the test verdict on `CS(=O)(=O)c1nnc(-c2ccccc2)s1` ?
label 0

What was the test verdict on `Nc1ccc(-c2csc(-n3[nH]c(=O)ccc3=O)n2)cc1` ?
label 0

What was the test verdict on `C=C1C(=O)O[C@H]2[C@H]1CC/C(Cn1cc(CCC)nn1)=C\CC[C@@]1(C)O[C@@H]21` ?
label 1

What was the test verdict on `Nc1nc(N)c(N=Nc2ccccc2)c(-c2ccccc2)n1` ?
label 0

What was the test verdict on `O=c1c2c3c(sc2n2c(-c4cc(-c5ccccc5)no4)nnc2n1Cc1ccccc1)CCCC3` ?
label 0

What was the test verdict on `O=C(NNC(=O)c1ccc(NC(=O)c2ccccn2)cc1)Nc1ccc2ccccc2c1` ?
label 0

What was the test verdict on `O=C1/C(=C/c2ccc(O)c(O)c2)COc2ccc(-c3ccccc3)cc21` ?
label 0

What was the test verdict on `COc1ccc(/C=C(/C(=O)n2cnnn2)c2cc(OC)c(OC)c(OC)c2)cc1` ?
label 1

---

Task for the reader: assign each of the following molecules its reported growth.
- Tested on: UACC-257 melanoma
- experiment.summary: NCI-60 one-dose screen, 48 h (100 = growth as untreated, 0 = no growth, -100 = all killed)
- recorded.conditions: 10 µM unless noted
This is part of a sample that, as a whole, favours compounds with a hit. Of some 83,000 tested, about 20% had one in any assay.
Numeric only. Scale: %

Give the measured growth for C#CC#CC#CC#CC#CC#CC#CC#CCC1OC[C@H](COC(=O)O[C@@H](C(=O)O[C@H]2C[C@@]3(O)[C@@H](OC(=O)c4ccccc4)[C@@H]4[C@]5(OC(C)=O)CO[C@@H]5C[C@H](O)[C@@]4(C)C(=O)[C@H](OC(C)=O)C(=C2C)C3(C)C)[C@@H](NC(=O)c2ccccc2)c2ccccc2)O1 (stereo partly specified)
64.9

Give the measured growth for `S=c1nc2oc(-c3ccccc3)c(-c3ccccc3)c2c(/N=C\c2ccco2)[nH]1`
105

Give the measured growth for `COc1cc(C2C(C(=O)OCc3ccccc3)=C(C)NC(C)=C2C(=O)OCc2ccccc2)cc(OC)c1OC`
19.5

Give the measured growth for `C=C(CNCCc1ccc(O)cc1)[C@@H]1CC[C@]2(CO)CC[C@]3(C)[C@H](CC[C@@H]4[C@@]5(C)CCC(=O)C(C)(C)[C@@H]5CC[C@]43C)[C@@H]12`
-12.8

Give the measured growth for `O=C(Cc1cccc(OC(F)(F)F)c1)Nc1ccc(CCCCc2nnc(NC(=O)Cc3ccccn3)s2)nn1`
92.9

Give the measured growth for `O=S(=O)(NCCNc1nccc(-c2c(-c3ccc(F)c(O)c3)nc3sccn23)n1)c1ccc(F)cc1`
32.1

---

- Tested on: RPMI-8226 leukemia
- experiment.summary: NCI-60 one-dose screen, 48 h
- recorded.conditions: 10 µM unless noted
- Description: Growth inhibition of the RPMI-8226 human tumor cell line is measured as a screen for anti-cancer activity. Cells are grown in 96 well plates and exposed to the test compound for 48 hours. Compounds are tested at a single concentration, which is 10^-5 M for most compounds. The reported endpoint is percent growth (GI% or GIPRCNT), where numbers from 0 - 100% represent growth inhibition, and numbers from -100% - 0 represent cell death. For example, a value of 40 represents 60% growth inhibition. […]
This is part of a sample that, as a whole, favours compounds with a hit. Of some 83,000 tested, about 20% had one in any assay. Calls of active or inactive are those of the source. How the source made its calls: active means growth percent below 10; inactive means the rest.
Answer with one of the outcomes label 1 = active, label 0 = inactive

What was the test verdict on `N#Cc1nc(-c2ccccc2)oc1S(=O)(=O)N1CCN(c2ccc(F)cc2)CC1` ?
label 0

What was the test verdict on `COc1ccc2c(c1)CCc1[nH]nc(-c3cc(OC)c(OC)c(OC)c3)c1-2` ?
label 0

What was the test verdict on `Oc1c(CN2CCCC2)cc(CSCc2ccccc2)c2cccnc12` ?
label 1

What was the test verdict on `CC1(C)OB(O)c2cc(-c3nc4ccc5[nH]ncc5c4c4c3CCCC4)ccc21` ?
label 0

What was the test verdict on `CCN1CCN(C(=O)[C@]23CC[C@@H](C)[C@H](C)[C@@H]2C2=CC[C@@H]4[C@@]5(C)C/C(=C/c6cccnc6)C(=O)C(C)(C)[C@@H]5CC[C@@]4(C)[C@]2(C)CC3)CC1` ?
label 1

What was the test verdict on `CC1=C2[C@@H](CC1)[C@]1(C)O[C@@](c3ccccc3)(C[C@H]1OC(=O)CO)[C@H]2OC(=O)/C=C/c1ccccc1` ?
label 0

What was the test verdict on `CNC(=O)c1ccccc1Nc1nc(Nc2cc(OC)c(OC)c(OC)c2)ncc1Br` ?
label 0

What was the test verdict on `CC1(C)CC[C@]23CC[C@]4(C)[C@H](CC[C@@H]5[C@@]6(C)C/C(=C/c7ccncc7)C(=O)C(C)(C)[C@@H]6CC[C@]54C)[C@H]2[C@H]1OC3` ?
label 0

What was the test verdict on `COc1ccc(/C(C)=C(/c2ccc(OCCCN(C)C)cc2)c2ccc(OC(=O)c3ccccc3)cc2)cc1` ?
label 0

What was the test verdict on Nc1nc(N)c2c(n1)NC(c1cccc(Nc3ccnc4cc(C(F)(F)F)ccc34)c1)CC(c1ccccc1)=N2 (stereo not drawn) ?
label 1

What was the test verdict on `NS(=O)(=O)c1ccc(C(=O)NN2C(=O)c3c(Br)c(Br)c(Br)c(Br)c3C2=O)cc1` ?
label 0

What was the test verdict on `CCN(CC)CCN1C(=O)c2c(c(C)c3c(oc4ccc(OC)cc43)c2C)C1=O` ?
label 0

What was the test verdict on `COc1ccc(CNc2c3ccccc3nc3ccccc23)c(OC)c1` ?
label 0

What was the test verdict on `O=S(=O)(NCCNc1nccc(-c2c(-c3cccc(O)c3)nc3occn23)n1)c1ccc(Br)cc1` ?
label 0

What was the test verdict on `CS(=O)(=O)c1ccc(NC(=O)c2ccccc2)nc1` ?
label 0

What was the test verdict on `O=C(c1c[nH]c2ccccc12)c1n[nH]c(=S)n1-c1cccc(Br)c1` ?
label 0

What was the test verdict on `CCOC(=O)c1[nH]c2c(c1C)-c1[nH]c(=O)c(S(=O)(=O)c3ccccc3)cc1SC2` ?
label 0

What was the test verdict on `COc1ccc(C(=O)/C=C/c2ccc(N3CCCCC3)cc2)cc1OC` ?
label 0

---

- Tested on: SK-MEL-2 melanoma
- experiment.summary: NCI-60 one-dose screen, 48 h (100 = growth as untreated, 0 = no growth, -100 = all killed)
- recorded.conditions: 10 µM unless noted
This is part of a sample that, as a whole, favours compounds with a hit. Of some 83,000 tested, about 20% had one in any assay.
observable: growth (%)
Numeric only. Scale: %

State growth on SK-MEL-2 melanoma. Entry: `Nn1c(=O)c(=O)[nH]c2c(cnn2-c2ccccc2)c1=O`
122

State growth on SK-MEL-2 melanoma. Entry: `Cc1ccc(Cl)cc1NC(=O)c1sc2nc3c(cc2c1N)C(=O)CCC3`
64.5

State growth on SK-MEL-2 melanoma. Entry: `NC(=O)c1c(NC(=O)c2cccc(C(F)(F)F)c2)sc2c1CCC(=O)C2`
-18.5

State growth on SK-MEL-2 melanoma. Entry: `C#CCNC(=O)[C@]1(C)CCC[C@@]2(C)[C@H]1CC=C1C=C(C(C)C)CC[C@@H]12`
95.9

State growth on SK-MEL-2 melanoma. Entry: `CN(C)CCCNC(=O)c1cncnc1Nc1ccc(OCc2cccc(F)c2)c(Cl)c1`
-35.7

State growth on SK-MEL-2 melanoma. Entry: `Cc1ccc(S(=O)(=O)OCCCOS(=O)(=O)c2ccc(C)cc2)cc1`
101

State growth on SK-MEL-2 melanoma. Entry: N#CC1=C(N)Oc2ccc3ccccc3c2C1c1ccc([N+](=O)[O-])cc1 (configuration not stated)
93.9

State growth on SK-MEL-2 melanoma. Entry: `COc1ccc2cc(-c3ccnc4c(N=Nc5ccc(Cl)cc5)c(N)nn34)ccc2c1`
118

State growth on SK-MEL-2 melanoma. Entry: O=C(NC1CC(F)C1)c1cc2cccnc2n1-c1ccc(Cl)c(Cl)c1 (configuration not stated)
105

State growth on SK-MEL-2 melanoma. Entry: COc1ccc(C2=NN(C(C)=O)C(c3cn(-c4ccccc4)nc3-c3ccc(Cl)cc3)C2)cc1 (configuration not stated)
63.7

State growth on SK-MEL-2 melanoma. Entry: `O=C(Nc1ccc(Cl)cc1)Oc1c(Cl)c(Cl)c(Cl)c(Cl)c1Cl`
95.7

State growth on SK-MEL-2 melanoma. Entry: `COc1cc2c(cc1OCCCCN1CCN(C(=S)SCCC(C#N)(c3ccccc3)c3ccccc3)CC1)N=C[C@@H]1CCCN1C2=O`
-95.1

State growth on SK-MEL-2 melanoma. Entry: `O=C(CN1CCCCCC1)Nc1nc2ccc(NCc3ccc(Cl)cc3)cc2s1`
109

State growth on SK-MEL-2 melanoma. Entry: `CC/C=C\C[C@H](O)C/C=C1/C(=O)C=C[C@@H]1C/C=C\CCCC(=O)O`
62.2

State growth on SK-MEL-2 melanoma. Entry: `O=c1nc(-c2ccccc2)c2cc(-c3ccc(C(F)(F)F)nc3)ccc2[nH]1`
103

State growth on SK-MEL-2 melanoma. Entry: `Fc1cccc(-c2ccc3c(c2)C2(CCNCC2)CN3)c1`
102

State growth on SK-MEL-2 melanoma. Entry: `CCCCNC(=O)Oc1ccc(/C(=C(/C)Cc2ccc(OC)cc2)c2ccc(OCCN3CCCCC3)cc2)cc1`
113

State growth on SK-MEL-2 melanoma. Entry: `Cc1ccc(-c2nc(/C=C3/C(=O)Nc4ccc(F)cc43)c3ccccn23)cc1`
31.9

State growth on SK-MEL-2 melanoma. Entry: `CC1(C)CC2=C3C=C[C@@H]4[C@@]5(C)CCC(=O)C(C)(C)[C@@H]5CC[C@@]4(C)[C@]3(C)CC[C@@]2(C(=O)O)C[C@H]1O`
9.89

State growth on SK-MEL-2 melanoma. Entry: `CCN1CCN(CC(=O)Nc2nc3ccc(NCc4ccc(F)cc4)cc3s2)CC1`
106

State growth on SK-MEL-2 melanoma. Entry: C/C=C(\C)C(=O)N[C@H]1C(O)C[C@]2(C)C3CC[C@@]4(C)C(CC[C@@H]4C(C)N(C)C)C3CCC2C1O (some centres not stated)
117

State growth on SK-MEL-2 melanoma. Entry: `CCc1ccc(CCC(=O)Nc2ncc(Cc3cc(Cl)ccc3Cl)s2)o1`
45.5

State growth on SK-MEL-2 melanoma. Entry: COC(=O)N1CC(Oc2ccccn2)C2CC1c1ccccc1O2 (configuration not stated)
116

State growth on SK-MEL-2 melanoma. Entry: `C=C1C(=O)O[C@H]2[C@H]1CC/C(COC(=O)/C=C\C(=O)NCc1ccc(Cn3c(=O)sn(CCCCC)c3=O)cc1)=C\CC[C@@]1(C)O[C@@H]21`
87.6

State growth on SK-MEL-2 melanoma. Entry: CC[N+]1(CC)CC[N+]2(CCCC(C)CC2)CC1 (configuration not stated)
110

State growth on SK-MEL-2 melanoma. Entry: `Oc1c(CN2CCC(N3CCCCC3)CC2)cc(Cc2cc(CN3CCC(N4CCCCC4)CC3)c(O)c3ncccc23)c2cccnc12`
41.4

State growth on SK-MEL-2 melanoma. Entry: `CCOc1ccc(-n2nc(C(=O)NCc3ccccc3OC)nc2-c2cc(OC)c(OC)c(OC)c2)cc1`
41.5

State growth on SK-MEL-2 melanoma. Entry: `NS(=O)(=O)c1ccc(-c2cc(-c3nnc(SCC(=O)Nc4ccc(C(=O)/C=C/c5ccc(Cl)cc5)cc4)n3-c3ccccc3)c3ccccc3n2)cc1`
105

State growth on SK-MEL-2 melanoma. Entry: `CC(=O)O[C@H]1C[C@@H]2C(C)(C)C(=O)CC[C@@]2(C)c2ccc(C(C)C)cc21`
109

State growth on SK-MEL-2 melanoma. Entry: `COc1ccc(/C=C/C(=O)c2cc3c(N)c(C(=O)Nc4cccc(Cl)c4C)sc3nc2C)cc1`
51.6

State growth on SK-MEL-2 melanoma. Entry: `Cc1ccc(-c2csc(N(C(=O)N3CCN(c4cc5c(cc4F)c(=O)c(C(=O)O)cn5C4CC4)CC3)c3ccccc3)n2)cc1`
-4.42

State growth on SK-MEL-2 melanoma. Entry: `NC(N)=NS(=O)(=O)c1ccc(NC2=C(I)C(=O)c3ncccc3C2=O)cc1`
106

State growth on SK-MEL-2 melanoma. Entry: `CC1(C)CC[C@]2(CO)CC[C@]3(C)[C@H](CC[C@@H]4[C@@]5(C)CCCNC(C)(C)[C@@H]5CC[C@]43C)[C@H]2[C@H]1O`
102

State growth on SK-MEL-2 melanoma. Entry: COc1ccc(/C=C/C(c2cc(OC)c(OC)c(OC)c2)n2cncn2)cc1 (configuration not stated)
12.9

State growth on SK-MEL-2 melanoma. Entry: `N#C/C(=C\c1ccc(-c2cccc(C(F)(F)F)c2)o1)c1ccccc1`
98.9

State growth on SK-MEL-2 melanoma. Entry: Cn1c2c(c3ccc(Cl)c(Cl)c31)C(C#N)C(C)(C)NC2=O (configuration not stated)
45.2

State growth on SK-MEL-2 melanoma. Entry: `O=c1cc(-c2ccccc2)[nH]c2ncc(-c3ccc(F)cc3)n12`
74.2
